- TESTED ON: UniProtKB P24666
- Sequence (P24666 whole entry): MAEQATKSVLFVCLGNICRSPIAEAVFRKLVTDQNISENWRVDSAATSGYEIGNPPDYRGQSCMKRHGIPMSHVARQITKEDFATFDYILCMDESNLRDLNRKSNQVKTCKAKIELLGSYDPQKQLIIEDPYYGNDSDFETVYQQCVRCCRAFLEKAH
- MEASUREMENT PROTOCOL: Inhibition of recombinant human ACP1 using pNPP as substrate preincubated with compound for 10 mins followed by substrate addition and measured by absorbance based assay
PARAMETER MEASURED: IC50

// IC50 lookup, key: COc1cc(/C=C2/NC(=O)N(Cc3ccccc3)C2=O)cc(Cl)c1OCc1cccc(C(=O)O)c1 5.2 µM

From: ChEMBL document CHEMBL5356965
